Provenance of the data: patent US20260167721A1

Please respond with reported Kd for every item in the list.
target: T1, recombinant human CD3 epsilon/gamma heterodimer (human, UniProt P07766 23-126; P09693 23-116); assay: Octet BLI, mAb on FAB2G sensor, hCD3 E/G 200-50 nM; R^2 0.99
T1 construct: Recombinant protein in solution (200-50 nM) in the Octet assay; also called hCD3 E/G
T1 sequence (P07766 23-126, chain 1 of 2): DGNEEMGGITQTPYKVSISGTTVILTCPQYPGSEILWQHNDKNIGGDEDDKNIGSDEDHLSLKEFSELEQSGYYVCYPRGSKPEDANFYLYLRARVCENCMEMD
T1 sequence (P09693 23-116, chain 2 of 2): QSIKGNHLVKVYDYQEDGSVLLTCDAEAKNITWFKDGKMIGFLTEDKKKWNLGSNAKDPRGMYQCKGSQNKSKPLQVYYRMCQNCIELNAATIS
One number for each entry, in nM.

// solved cases for Kd follow
ABL-CD3-28 (antibody, V domains shown, Chimeric hybridoma mAb: human V, CH1, upper hinge; mouse middle hinge, CH2, CH3) VH: QVQLQQSGPGLVKPSQTLSLTCAISGDSVSSNSVAWNWIRQSPSRGLEWLGRTYYRSKWYNECAGSVKSRITINPDTSKNQFSLQLNSVTPEDTAIYYCARERKWELFLDYWGQGTLVTVSS VL: NFMLTQPHSVSESPGKTVTISCTRSSGSIASNYVQWYQQRPGSSPTTVIYEDNQRPSGVPDRFSGSIDSSSNSASLTISGLKTEDEADYYCQSFDSSNVVFGGGTKLTVL ... 5.6
ABL-CD3-7 (antibody, V domains shown, Chimeric hybridoma mAb: human V, CH1, upper hinge; mouse middle hinge, CH2, CH3) VH: EVQLVESGGGLVKPGGSLRLSCAASGFTFSRYSMNWVRQAPGKGLKWVSSISSSGSYKYYADSVKGRFTISRDNAKNSLYLQMNSLRAEDTAVYYCAREPPTLGMDYWGQGTLVTVSS VL: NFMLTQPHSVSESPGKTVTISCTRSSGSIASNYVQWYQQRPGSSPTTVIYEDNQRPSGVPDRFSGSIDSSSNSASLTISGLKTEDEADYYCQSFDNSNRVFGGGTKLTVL ... 8.42

**Query** Using the record for ABL-CD3-48 (antibody, V domains shown, Chimeric hybridoma mAb: human V, CH1, upper hinge; mouse middle hinge, CH2, CH3) VH: EVQLVESGGGLVKPGGSLRLSCAASGFTFSSYTMNWVRQAPGKGLEWVSSISGSGSYIYYADSVKGRFTISRDNAKNSLYLQMNSLRAEDTAVYYCAREPPTLGMDYWGQGTLVTVSS VL: NFMLTQPHSVSESPGKTVTISCTRSSGSIASNYVQWYQQRPGSSPTTVIYEDNQRPSGVPDRFSGSIDSSSNSASLTISGLKTEDEADYYCQSFDSSNRVFGGGTKLTVL , report its Kd.
**Result** 17.9
